Assay: Metabolic stability in mouse liver microsomes (MLM)
Type: in vitro ADME
Conditions: 1 μM compound, 0.5 mg/mL MLM, 1 mM NADPH, 37° C., read-out: half-life (t1/2) towards MLM
outcomeMeasure: half-life at 1 μM

> print(dat)
                      structuresmilesstring     outcomemeasure      obsvalue
1  FC(F)(F)Oc1ccc(-n2cc(CNc3ccnc(C(F)(F)F)c3)nn2)cc1Cl  half-life at 1 μM  0.517 to 1 h
2  FC(F)(F)c1cc(NCc2cnc(-c3ccc(Cl)cc3)s2)ccn1  half-life at 1 μM         > 1 h
3  COc1ccc(-c2ncc(CSc3cc(N)nc(C(F)(F)F)n3)s2)cc1Cl  half-life at 1 μM         > 1 h
4  FC(F)(F)c1cc(NCc2cn(-c3ccc(-n4ncc5ccncc54)c(Cl)c3)nn2)ccn1  half-life at 1 μM  0.517 to 1 h
5  FC(F)(F)c1cc(NCc2cnc(-c3ccc(Oc4ccccc4)cc3)s2)cc(Cl)n1  half-life at 1 μM  0.517 to 1 h
6  FC(F)(F)c1cc(NCc2cn(-c3ccc(-n4ncc5ccccc54)cc3)nn2)ccn1  half-life at 1 μM  0.517 to 1 h
7  FC(F)(F)c1cc(NCc2ccc(-c3ccc(Oc4ccccc4)nc3)cn2)ccn1  half-life at 1 μM  0.517 to 1 h
8  FC(F)(F)c1cc(NCc2ccc(-c3cccc(Oc4ccccc4)c3)cn2)ccn1  half-life at 1 μM  0.517 to 1 h

* * *

Tested on: HEK293 cells
Experiment: Cytotoxicity (MTT) toward HEK293
Type: cell-based
Conditions: Homo sapiens, 48 h, upper class: or at solubility maximum, read-out: IC50-value towards HEK293
outcomeMeasure: IC50

> print(dat)
                                   compound  outcomemeasure     obsvalue
1  Fc1cc(-n2cc(CNc3ccnc(C(F)(F)F)c3)nn2)ccc1Oc1ccccc1 [Compound 028]            IC50  25 to 50 µM
2  FC(F)(F)c1cc(NCc2ccc(-c3ccc(Oc4ccccc4)cc3)cn2)ccn1 [Compound 097]            IC50  25 to 50 µM
3  Fc1cc2nc(CSc3ccnc(C(F)(F)F)c3)[nH]c2cc1F [Compound 122]            IC50      ≥ 50 µM
4  FC(F)(F)Oc1ccc(-n2cc(CNc3ccnc(C(F)(F)F)c3)nn2)cc1Cl [Compound 022]            IC50  25 to 50 µM

* * *

// reported IC50 for each item listed
Molecular target: PqsR (Pseudomonas aeruginosa, UniProt Q9I4X0)
Sequence (Q9I4X0 whole entry): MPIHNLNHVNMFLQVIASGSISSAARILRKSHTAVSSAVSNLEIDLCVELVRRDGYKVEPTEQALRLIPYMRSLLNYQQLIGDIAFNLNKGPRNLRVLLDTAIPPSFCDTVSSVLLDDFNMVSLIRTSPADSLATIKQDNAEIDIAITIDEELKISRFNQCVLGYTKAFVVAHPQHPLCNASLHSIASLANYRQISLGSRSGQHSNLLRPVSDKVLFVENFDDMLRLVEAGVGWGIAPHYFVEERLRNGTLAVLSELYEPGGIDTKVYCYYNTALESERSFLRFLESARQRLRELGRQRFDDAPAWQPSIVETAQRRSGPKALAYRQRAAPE
Test: E. coli based β-galactosidase reporter gene assay (PqsR inverse agonistic activity)
Format: cell-based
Design: expressed in transfected cells; host or cells: Escherichia coli DH5α
Protocol: Inhibition of pqsR-dependent gene expression of test compounds was determined in an E. coli based β-galactosidase reporter gene assay.[19] […] Antagonistic effects of compounds were evaluated in the presence of/in competition to 50 nM PQS. […] Finally, 995 μL of culture was added to each well and the p-galactosidase activity was determined by ortho-nitrophenyl-p-galactoside conversion in permeabilized cells after a 2.5 h incubation period (37° C., 180 rpm). […]
outcomeMeasure: IC50

> print(dat)
                      structuresmilesstring        obsvalue
1  N#Cc1cc(NCc2cn(-c3ccc(Oc4ccccc4)cc3)nn2)cc(C#N)n1         ≤ 50 nM
2  COc1ccc(-n2cc(CSc3ccnc(C(F)(F)F)c3)nn2)cc1  251 to 1000 nM
3  FC(F)(F)c1cc(SCc2cn(-c3ccc(Br)cc3)nn2)ccn1    51 to 250 nM
4  Fc1cc(-n2cc(CSc3ccnc(C(F)(F)F)c3)nn2)ccc1OC(F)(F)F    51 to 250 nM
5  FC(F)(F)c1cc(SCc2nc3cc(Oc4ccccc4)ccc3[nH]2)cc(Cl)n1         ≤ 50 nM
6  FC(F)(F)Oc1cccc(-n2cc(CNc3ccnc(C(F)(F)F)c3)nn2)c1    51 to 250 nM
7  CC(C)Oc1ccc(-c2ncc(CNc3cc(C#N)nc(C(F)(F)F)c3)s2)cc1Cl         ≤ 50 nM
8  Cc1cccc(Oc2ccc3[nH]c(CSc4cc(N)nc(C(F)(F)F)n4)nc3c2)c1         ≤ 50 nM
9  Clc1cc(NCc2cnc(-c3ccc(Oc4ccccc4)cc3)s2)ccn1         ≤ 50 nM

* * *

// reported IC50 for each item listed
Target: PqsR (Pseudomonas aeruginosa, UniProt Q9I4X0)
Assay: E. coli based β-galactosidase reporter gene assay (PqsR inverse agonistic activity)
Format: cell-based
Parameters: expressed in transfected cells; host or cells: Escherichia coli DH5α
outcomeMeasure: IC50

> print(dat)
                      structuresmilesstring      obsvalue
1  CC(C)Oc1ncc(-c2ncc(CNc3ccnc(C(F)(F)F)c3)cn2)cc1Cl       ≤ 50 nM
2  FC(F)(F)c1ccc(-n2cc(CNc3ccnc(C(F)(F)F)c3)nn2)cc1  51 to 250 nM
3  Nc1cc(OCc2nc3cc(Oc4ccccc4)ccc3[nH]2)nc(C(F)(F)F)n1  51 to 250 nM
4  Clc1cc(NCc2cn(-c3ccc(Oc4ccccc4)cc3)nn2)ccn1       ≤ 50 nM

* * *

Assay: Kinetic Turbidimetric Aqueous Solubility at room temperature for 5 min
Format: physicochemical
Settings: PBS buffer, kinetic from dmso stock, 2% DMSO
// reported solubility at 5 min for each item listed
outcomeMeasure: solubility at 5 min

> print(dat)
                                    molecule       outcomemeasure  obsvalue
 1  FC(F)(F)c1cc(NCc2ccc(-c3cnc(Cl)c(Cl)c3)cn2)ccn1 [Compound 102]  solubility at 5 min   > 50 µM
 2  FC(F)(F)c1cc(NCc2cn(-c3ccc(-n4ncc5ccccc54)cc3)nn2)ccn1 [Compound 046]  solubility at 5 min   > 25 µM
 3  FC(F)(F)c1cc(NCc2cn(-c3ccc(-n4ccc5cccnc54)cc3)nn2)ccn1 [Compound 044]  solubility at 5 min   > 10 µM
 4  Fc1ccccc1Oc1ccc(-n2cc(CNc3ccnc(C(F)(F)F)c3)nn2)cc1 [Compound 144]  solubility at 5 min   > 25 µM
 5  FC(F)(F)c1cc(NCc2nc3cc(Oc4ccccc4)ccc3[nH]2)ccn1 [Compound 182]  solubility at 5 min   > 50 µM
 6  FC(F)(F)c1cc(SCc2ccc(-c3ccc(Cl)nc3)cn2)ccn1 [Compound 112]  solubility at 5 min   > 25 µM
 7  FC(F)(F)c1cc(NCc2ccc(-c3ccc(Oc4ccccc4)nc3)cn2)ccn1 [Compound 100]  solubility at 5 min   > 25 µM
 8  FC(F)(F)c1cc(NCc2cn(-c3ccc(Oc4ccc(Cl)cc4)cc3)nn2)ccn1 [Compound 037]  solubility at 5 min   > 10 µM
 9  FC(F)(F)c1cc(NCc2cn(-c3ccc(Oc4cccnc4)c(Cl)c3)nn2)ccn1 [Compound 031]  solubility at 5 min   > 25 µM
10  FC(F)(F)c1cc(SCc2nc3cc(Cl)c(Cl)cc3[nH]2)ccn1 [Compound 119]  solubility at 5 min   > 25 µM

* * *

// reported IC50 for each item listed
Target: PqsR (Pseudomonas aeruginosa, UniProt Q9I4X0)
Experiment: E. coli based β-galactosidase reporter gene assay (PqsR inverse agonistic activity)
Format: cell-based
Set-up: expressed in transfected cells; host or cells: Escherichia coli DH5α
outcomeMeasure: IC50

> print(dat)
                                   molecule                                systemname        obsvalue
1  Fc1ccccc1Oc1ccc(-n2cc(CNc3cc(Cl)nc(C(F)(F)F)c3)nn2)cc1 [Compound 143]  PqsR (Pseudomonas aeruginosa, UniProt Q9I4X0)         ≤ 50 nM
2  FC(F)(F)c1cc(NCc2cn(-c3ccc(OC4CCC4)c(Cl)c3)nn2)ccn1 [Compound 047]  PqsR (Pseudomonas aeruginosa, UniProt Q9I4X0)         ≤ 50 nM
3  Fc1ccc(Oc2ccc(-c3nc(CNc4ccnc(C(F)(F)F)c4)cs3)cn2)cc1 [Compound 083]  PqsR (Pseudomonas aeruginosa, UniProt Q9I4X0)    51 to 250 nM
4  CSc1ccc(-n2cc(CNc3ccnc(C(F)(F)F)c3)nn2)cc1Cl [Compound 038]  PqsR (Pseudomonas aeruginosa, UniProt Q9I4X0)         ≤ 50 nM
5  FC(F)(F)c1cc(SCc2nnc(-c3ccc(Cl)cc3)o2)ccn1 [Compound 136]  PqsR (Pseudomonas aeruginosa, UniProt Q9I4X0)  251 to 1000 nM
6  CC(C)Oc1ccc(-c2nc(CNc3ccnc(C(F)(F)F)c3)cs2)cc1Cl [Compound 082]  PqsR (Pseudomonas aeruginosa, UniProt Q9I4X0)         ≤ 50 nM
7  FC(F)(F)c1cc(SCc2nc3ccc(Oc4ccccc4)cc3o2)ccn1 [Compound 132]  PqsR (Pseudomonas aeruginosa, UniProt Q9I4X0)    51 to 250 nM
8  FC(F)(F)c1cc(NCc2cn(-c3ccc(Oc4cccnc4)cc3)nn2)cc(Cl)n1 [Compound 141]  PqsR (Pseudomonas aeruginosa, UniProt Q9I4X0)         ≤ 50 nM
